MEASURED_ON: Toll-like receptor 2 (Homo sapiens, UniProt O60603)
Sequence (O60603 whole entry): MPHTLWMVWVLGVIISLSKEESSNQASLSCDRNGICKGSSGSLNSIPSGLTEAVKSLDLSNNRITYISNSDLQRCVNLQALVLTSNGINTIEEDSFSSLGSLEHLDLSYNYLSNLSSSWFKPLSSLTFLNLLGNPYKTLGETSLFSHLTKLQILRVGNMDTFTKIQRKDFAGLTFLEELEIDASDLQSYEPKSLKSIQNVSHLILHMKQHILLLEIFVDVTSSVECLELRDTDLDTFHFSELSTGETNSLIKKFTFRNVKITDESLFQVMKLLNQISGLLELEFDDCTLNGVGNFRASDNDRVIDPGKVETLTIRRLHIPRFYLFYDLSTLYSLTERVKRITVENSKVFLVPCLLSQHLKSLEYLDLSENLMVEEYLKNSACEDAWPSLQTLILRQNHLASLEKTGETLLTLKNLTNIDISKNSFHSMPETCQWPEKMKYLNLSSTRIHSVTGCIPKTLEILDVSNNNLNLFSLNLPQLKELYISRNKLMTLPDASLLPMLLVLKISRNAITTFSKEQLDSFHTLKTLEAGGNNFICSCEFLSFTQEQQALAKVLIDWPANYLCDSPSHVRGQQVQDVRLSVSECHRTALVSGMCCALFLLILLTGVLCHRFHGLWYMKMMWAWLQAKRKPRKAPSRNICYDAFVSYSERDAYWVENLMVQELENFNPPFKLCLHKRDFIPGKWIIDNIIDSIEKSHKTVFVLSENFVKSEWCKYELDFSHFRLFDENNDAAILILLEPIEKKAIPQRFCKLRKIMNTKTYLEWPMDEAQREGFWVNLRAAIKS
EXPERIMENTAL_PROTOCOL: Agonist activity at human TLR2 expressed in HEK-Blue hTLR2 cells as SEAP expression incubated for 16 hrs by SEAP-based plate reader analysis
Assay type: cell-based
pEC50: −log10 of the molar value.
Property: pEC50; scope: individual compounds
REPORTED_METRIC: pEC50

COMPOUND | REPORTED_METRIC | RESULT_OPERATOR | OBSERVED_MEASUREMENT
CC1CN(C(=O)c2ccc(C(=O)N3C[C@@H](C(=O)N[C@H]4C[C@@H]4c4ccccc4)[C@H](C(=O)N[C@H]4C[C@@H]4c4ccccc4)C3)cc2)CC1C(=O)N[C@H]1C[C@@H]1c1ccccc1 (stereo partly specified) | pEC50 | = | 6.15
CCCC[C@@H]1CN(C(=O)c2ccc(C(=O)N3C[C@@H](C(=O)N[C@H]4C[C@@H]4c4ccccc4)[C@H](C(=O)N[C@H]4C[C@@H]4c4ccccc4)C3)cc2)C[C@H]1C(=O)N[C@H]1C[C@@H]1c1ccccc1 | pEC50 | = | 7.41
O=C(N[C@H]1C[C@@H]1c1ccccc1)[C@H]1CCN(C(=O)c2ccc(C(=O)N3C[C@@H](C(=O)N[C@H]4C[C@@H]4c4ccccc4)[C@H](C(=O)N[C@H]4C[C@@H]4c4ccccc4)C3)cc2)C1 | pEC50 | < | 5.30
O=C(N[C@H]1C[C@@H]1c1ccccc1)C1CN(C(=O)c2ccc(C(=O)N3C[C@@H](C(=O)N[C@H]4C[C@@H]4c4ccccc4)[C@H](C(=O)N[C@H]4C[C@@H]4c4ccccc4)C3)cc2)CC1CO (stereo partly specified) | pEC50 | < | 5.30
O=C(N[C@H]1C[C@@H]1c1ccccc1)C1CN(C(=O)c2ccc(C(=O)N3C[C@@H](C(=O)N[C@H]4C[C@@H]4c4ccccc4)[C@H](C(=O)N[C@H]4C[C@@H]4c4ccccc4)C3)cc2)C1 | pEC50 | < | 5.30
CC(C)CC1CN(C(=O)c2ccc(C(=O)N3CC(CC(C)C)[C@H](C(=O)N[C@H]4C[C@@H]4c4ccccc4)C3)cc2)CC1C(=O)N[C@H]1C[C@@H]1c1ccccc1 (stereo partly specified) | pEC50 | < | 5.30
O=C(N[C@H]1C[C@@H]1c1ccccc1)C1CN(C(=O)c2ccc(C(=O)N3C[C@@H](C(=O)N[C@H]4C[C@@H]4c4ccccc4)[C@H](C(=O)N[C@H]4C[C@@H]4c4ccccc4)C3)cc2)CC1CF (stereo partly specified) | pEC50 | < | 5.30
CCC1CN(C(=O)c2ccc(C(=O)N3C[C@@H](C(=O)N[C@H]4C[C@@H]4c4ccccc4)[C@H](C(=O)N[C@H]4C[C@@H]4c4ccccc4)C3)cc2)CC1C(=O)N[C@H]1C[C@@H]1c1ccccc1 (stereo partly specified) | pEC50 | = | 6.29
CCCCC1CN(C(=O)c2ccc(C(=O)N3CC(CCCC)[C@H](C(=O)N[C@H]4C[C@@H]4c4ccccc4)C3)cc2)CC1C(=O)N[C@H]1C[C@@H]1c1ccccc1 (stereo partly specified) | pEC50 | = | 5.82
CCC[C@H]1CN(C(=O)c2ccc(C(=O)N3C[C@@H](C(=O)N[C@H]4C[C@@H]4c4ccccc4)[C@H](C(=O)N[C@H]4C[C@@H]4c4ccccc4)C3)cc2)C[C@@H]1C(=O)N[C@H]1C[C@@H]1c1ccccc1 | pEC50 | = | 7.06
CC(C)C1CN(C(=O)c2ccc(C(=O)N3C[C@@H](C(=O)N[C@H]4C[C@@H]4c4ccccc4)[C@H](C(=O)N[C@H]4C[C@@H]4c4ccccc4)C3)cc2)CC1C(=O)N[C@H]1C[C@@H]1c1ccccc1 (stereo partly specified) | pEC50 | = | 6.15
CCC[C@@H]1CN(C(=O)c2ccc(C(=O)N3C[C@@H](C(=O)N[C@H]4C[C@@H]4c4ccccc4)[C@H](C(=O)N[C@H]4C[C@@H]4c4ccccc4)C3)cc2)C[C@H]1C(=O)N[C@H]1C[C@@H]1c1ccccc1 | pEC50 | = | 6.75
CCC1CN(C(=O)c2ccc(C(=O)N3CC(CC)[C@H](C(=O)N[C@H]4C[C@@H]4c4ccccc4)C3)cc2)CC1C(=O)N[C@H]1C[C@@H]1c1ccccc1 (stereo partly specified) | pEC50 | < | 5.30
CCCC[C@H]1CN(C(=O)c2ccc(C(=O)N3C[C@@H](C(=O)N[C@H]4C[C@@H]4c4ccccc4)[C@H](C(=O)N[C@H]4C[C@@H]4c4ccccc4)C3)cc2)C[C@@H]1C(=O)N[C@H]1C[C@@H]1c1ccccc1 | pEC50 | = | 7.46
O=C(N[C@H]1C[C@@H]1c1ccccc1)C1CCN(C(=O)c2ccc(C(=O)N3C[C@@H](C(=O)N[C@H]4C[C@@H]4c4ccccc4)[C@H](C(=O)N[C@H]4C[C@@H]4c4ccccc4)C3)cc2)CC1 | pEC50 | < | 5.30
CC(C)CC1CN(C(=O)c2ccc(C(=O)N3C[C@@H](C(=O)N[C@H]4C[C@@H]4c4ccccc4)[C@H](C(=O)N[C@H]4C[C@@H]4c4ccccc4)C3)cc2)CC1C(=O)N[C@H]1C[C@@H]1c1ccccc1 (stereo partly specified) | pEC50 | = | 6.54
CC(C)C1CN(C(=O)c2ccc(C(=O)N3CC(C(C)C)[C@H](C(=O)N[C@H]4C[C@@H]4c4ccccc4)C3)cc2)CC1C(=O)N[C@H]1C[C@@H]1c1ccccc1 (stereo partly specified) | pEC50 | < | 5.30
CCCC1CN(C(=O)c2ccc(C(=O)N3CC(CCC)[C@H](C(=O)N[C@H]4C[C@@H]4c4ccccc4)C3)cc2)CC1C(=O)N[C@H]1C[C@@H]1c1ccccc1 (stereo partly specified) | pEC50 | < | 5.30
CC1CN(C(=O)c2ccc(C(=O)N3CC(C)[C@H](C(=O)N[C@H]4C[C@@H]4c4ccccc4)C3)cc2)CC1C(=O)N[C@H]1C[C@@H]1c1ccccc1 (stereo partly specified) | pEC50 | < | 5.30
CCCCC1CN(C(=O)c2ccc(C(=O)N3C[C@@H](C(=O)N[C@H]4C[C@@H]4c4ccccc4)[C@H](C(=O)N[C@H]4C[C@@H]4c4ccccc4)C3)cc2)CC1C(=O)N[C@H]1C[C@@H]1c1ccccc1 (stereo partly specified) | pEC50 | = | 7.43
CCCC1CN(C(=O)c2ccc(C(=O)N3C[C@@H](C(=O)N[C@H]4C[C@@H]4c4ccccc4)[C@H](C(=O)N[C@H]4C[C@@H]4c4ccccc4)C3)cc2)CC1C(=O)N[C@H]1C[C@@H]1c1ccccc1 (stereo partly specified) | pEC50 | = | 6.97

Origin of measurements: ChEMBL document CHEMBL5352437
